Taken from patent US20040208887A1.

molecular target: T1, recombinant soluble HCV E1 protein (hepatitis C virus); assay: ELISA, recombinant E1 captured on GNA lectin; crude periplasmic Fab
T1 construct: It is not the cell-surface E1-myc construct (aa 174-359 of H77c) that was used for phage selection; also called recombinant E1; soluble E1 protein
Quick list: OD405 nm per entry.
Numbers only; they are read as OD405 nm.

Observe how each entry below is paired with its result.
Input: Can you share its OD405 nm? I mean this binder: Fab clone 2a-37 (Fab, V domains shown, Human Fab (gamma1 Fd + kappa), crude periplasmic preparation, approx. 0.08 ug Fab/ml) VH: EVQLLESGGGLVQPGRSLRLSCAASGFTFSNSDMHWVRQAPGKGLEWVTVSSRDGYDNYYADSVRGRFTISRDNSKNTLYLQMNTLRAEDTAVYYCAKRRGYAFDIWGQGTMVTVSS VL: AELTQSPSSLSASVGDRVTITCRASQSINTYLNWYQQKPGKAPELLIYGASSLQSGVPSRFSGSGSGTDFTLTITSLQAEDFASYFCQQSDSTPRTFGQGTKVEIK
Output: 0.99

Input: Can you share its OD405 nm? I mean this binder: Fab clone 2b-3 (Fab, V domains shown, Human Fab (gamma1 Fd + kappa), crude periplasmic preparation, approx. 1.0 ug Fab/ml) VH: EVQLLESGAEVKKPGASVTVSCKASGYSFSDYYIHWVRQAPGQGLEWMGIINPSAGTTTYKQKFQHRVTLTRDTSTNTAYMKLYNLTPDDTAIFFCARGSGGSRSEYDYWGQGTLVTVSS VL: AELTQSPSSLSASVGDGVTITCRASQSISTYLNWYQQKPGKAPKLLMYAASTLQSGVPSRFSGSGSGTDFTLTISSLQPEDFAAYYCQQARSFPYTFGQGTRLEIR
Output: 1.18

***
Input: Can you share its OD405 nm? I mean this binder: Fab clone 2b-5 (Fab, V domains shown, Human Fab (gamma1 Fd + kappa), crude periplasmic preparation, approx. >1.0 ug Fab/ml) VH: EVQLLESGGGVVQPGRSLRLSCAASGFTLSTYAMHWVRQAPGRGLEWVAVISYDGDHKFYADSMKGRFAISRDTSTNTLYLEVNSLKIEDTAVYYCARDRDRRGGYVFSTTGGLDSWGQGTLVTVSS VL: AELTQSPLSLAVTPGEPASISCRTSQSLLHSNGYTYLDWYLQKPGQSPQLLIYLASNRASGVPDRFSGSGSGTDFTLEISRVEAEDVGVYYCMQPLQTPVTFGQGTKVEVK
Output: 2.21
